Listed here are molecules together with their documented TGI.
# System: NCI/ADR-RES ovarian
# TEST SUMMARY: NCI tumour cell line growth inhibition, 48 h
REPORTED ENDPOINT: TGI

CO[C@@H](C(=O)N1Cc2[nH]nc(NC(=O)c3ccc(N4CCN(C)CC4)cc3)c2C1)c1ccccc1	> 100 µM
Nc1ccc2nc3ccc(=O)cc-3n(-c3ccccc3)c2c1	> 100 µM
CO[C@]12CC(=O)C3(C(C[C@H]4CC5CCC6=CC(=O)CC[C@]6(OC(C)=O)C5C[C@@]43C)C1)C1C[C@H]3[C@@H]4CCC5=CC(=O)CC[C@]5(OC(C)=O)[C@H]4CC[C@]3(C)C12 (stereo partly specified)	> 100 µM
Cn1c2ccccc2c(=NNc2ccc(S(N)(=O)=O)cc2)c2ccccc21	> 50 µM
CCN(CC)c1ccc2cc(C(=O)Nc3ccccc3OC)c(=N)oc2c1	90.8 µM
COc1cccc(-n2ncc3c(N/N=C/c4ccc(F)cc4)ncnc32)c1	> 25 µM
Cc1cccc(NC(=S)Nc2ccc(Cl)cc2)n1	> 100 µM
CN1C(c2ccccc2)CC(=NOCc2ccccc2)CC1c1ccccc1 (stereo unspecified)	42.4 µM
O=c1[nH]c2cc(Cl)ccc2nc1/C(=N/Nc1ccccc1)C(O)c1ccco1 (stereo unspecified)	> 100 µM
COc1ccc2c(c1)O[C@@H]1[C@@H](OC3OC(CO)C(O)C(O)C3O)Oc3cc(OC)c(OC)cc3[C@]1(O)C2=O (stereo partly specified)	> 100 µM
CC(C)(Oc1ccc(Cl)cc1)C(=O)NC1C2CC3CC1CC(NS(C)(=O)=O)(C3)C2 (stereo unspecified)	> 100 µM
CC1(C)C[C@H]2[C@H](O)C(CO)=C3C(=O)[C@@H](O)[C@]3(C)[C@H]2C1	> 100 µM
C=C(C)C[C@H](Sc1nc2ccccc2s1)[C@H](C)O	> 100 µM
CN(C)c1ccc(O)c2c1CC1CC3C(N(C)C)C(=O)C(C(N)=O)=C(O)C3(O)C(=O)C1=C2O (stereo unspecified)	73.6 µM
Clc1cccc(Cl)c1C(Nc1nncs1)Nc1nncs1	> 100 µM
CNc1ccc(S(=O)Nc2ccc(OC)cc2)cc1 (stereo unspecified)	> 100 µM
O=C1c2ccc3c4c(ccc(c24)C(=O)N1CCCNCc1ccccc1F)C(=O)N(CCCNCc1ccccc1F)C3=O	0.726 µM
COc1ccc(CN2CCc3c(Sc4ccccc4)nc(N)nc3C2=O)c(OC)c1	29.9 µM
CN1CN(c2ccccc2)C2(CCN(Cc3nc4ccccc4s3)CC2)C1=O	33.5 µM
C[C@H](CCC(=O)O)[C@H]1CC[C@H]2[C@@H]3[C@@H](O)C[C@@H]4C[C@H](O)CC[C@]4(C)[C@H]3CC[C@]12C	> 100 µM
CCOC(=O)c1c2c(n(Cc3ccc(Cl)cc3Cl)c1C)-c1nc(Cc3ccccc3)[nH]c1C(=O)C2=O	10.6 µM
Cc1nc2c(=O)n(C)c(=O)n(C)c2o1	> 100 µM
CN(CCN(C)CCN(C)C(=O)Cc1ccc(Cl)c(Cl)c1)CCN1CCCC1	> 100 µM
CCC#CCCCCCCCCC(F)C(=O)O (stereo unspecified)	> 100 µM
COC(=O)c1cc2cc(-c3ccc(OC)cc3)cnc2[nH]1	3.41 µM
O=C(/C=C\c1ccc(-c2ccccc2)cc1)c1cccs1	> 100 µM
